Reference for the values: ChEMBL document CHEMBL4354808

# Tested on: dengue virus type 2
# assay.protocol: Antiviral activity against Dengue virus 2 New Guinea C infected in human A549 cells after 48 hrs by plaque reduction assay
# Type: functional, organism-based
# measurement.context: A549, 48 h
readout.label: EC50 (nM)
# output: bare number, implied unit nM

Per the records, this compound ( O=C1C=C/C(=N/Nc2ccc([N+](=O)[O-])cc2Cl)C=C1C(=O)Nc1cccc(Cl)c1 ) has EC50 equal to 810

----------
# assay.protocol: Cytotoxicity against human Neural progenitor cells
# Format: cell-based
readout.label: CC50

In plain terms, CC(C)OC(=O)[C@H](C)N[P@](=O)(OC[C@H]1O[C@@H](n2ccc(=O)[nH]c2=O)[C@](C)(F)[C@@H]1O)Oc1ccccc1 [SOFOSBUVIR] has a documented CC50 of 360 to 512 µM

----------
# assay.protocol: Cytotoxicity against African green monkey Vero cells after 5 days by CellTiter Blue assay
# Type: cell-based
# measurement.context: chlorocebus sabaeus
readout.label: CC50 at 120 h

Item: CCN(CC)CCCC(C)Nc1ccnc2cc(Cl)ccc12 (stereo unspecified) | CC50 at 120 h: 95 to 135 µM

----------
# tested.system: Nonstructural protein 3 (Zika virus)
# assay.protocol: Inhibition of Zika virus Asian/8375 NS2B (48 to 100 residues)-NS3 (14 to 185 residues) expressed in Escherichia coli BL21 (DE3) Star cells preincubated for 30 mins followed by Bz-nKRR-AMC substrate addition
readout.label: IC50 (nM)
Give just the number in nM; leave the unit off.

# compound O=c1c(O)c(-c2cc(O)c(O)c(O)c2)oc2cc(O)cc(O)c12 ; its IC50 = 1300

----------
# assay.protocol: Cytotoxicity against African green monkey Vero E6 cells by the MTS method
# Format: cell-based, Vero C1008
# measurement.context: chlorocebus sabaeus
readout.label: CC50

CC50 in this record for CCCCCOCc1c(Nc2ccc(S(N)(=O)=O)cc2)nc(N2CCOCC2)nc1C(=O)NCCOc1ccccc1 : > 83.5 µM

----------
# tested.system: NS5 (Zika virus)
# Sequence (A0A143MHK7 whole entry, the tested form may be a part): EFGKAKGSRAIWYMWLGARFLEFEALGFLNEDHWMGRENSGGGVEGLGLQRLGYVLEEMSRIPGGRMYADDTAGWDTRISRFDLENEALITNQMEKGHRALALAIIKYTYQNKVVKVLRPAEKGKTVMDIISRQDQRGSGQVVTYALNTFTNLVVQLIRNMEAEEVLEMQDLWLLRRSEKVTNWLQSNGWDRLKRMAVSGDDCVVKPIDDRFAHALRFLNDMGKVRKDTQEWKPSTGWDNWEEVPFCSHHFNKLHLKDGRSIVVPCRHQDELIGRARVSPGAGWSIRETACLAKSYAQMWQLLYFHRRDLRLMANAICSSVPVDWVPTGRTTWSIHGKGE
# assay.protocol: Inhibition of Zika virus MTase (4 to 278 residues) expressed in Escherichia coli T7 using A27 RNA as substrate in presence of [3H]SAM incubated for 30 mins by liquid scintillation counter method
readout.label: pIC50
Recall that pIC50 is obtained by taking minus log10 of the concentration measured in molar.

Nc1ncnc2c1ncn2[C@@H]1O[C@H](C[C@@H](N)CC[C@H](N)C(=O)O)[C@@H](O)[C@H]1O has a reported pIC50 of 5.79

The compound identified as Nc1cc(C(F)(F)F)ccc1NC(=O)Nc1cccc(S(=O)(=O)Nc2ccc(C(=O)O)cc2)c1 registered its pIC50 at 4.10

----------
For each entry below, report its pKd value.
Schema: pKd number; meaning minus log10 of the concentration expressed in molar units.

Measured pKd for this entry C[S+](CC[C@H](N)C(=O)[O-])C[C@H]1O[C@@H](n2cnc3c(N)ncnc32)[C@H](O)[C@@H]1O (some centres not stated) [ADEMETIONINE] on NS5 (Zika virus): 5.59

Item Nc1ncnc2c1ncn2[C@@H]1O[C@H](CN(CC[C@H](N)C(=O)O)Cc2ccc(F)cc2)[C@@H](O)[C@H]1O ; assay system NS5 (Zika virus); pKd reported as 4.61

----------
# tested.system: Nonstructural protein 3 (Zika virus, UniProt A0A024AXB9)
# Sequence (A0A024AXB9 whole entry, the tested form may be a part): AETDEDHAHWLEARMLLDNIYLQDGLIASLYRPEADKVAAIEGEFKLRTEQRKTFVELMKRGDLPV
# assay.protocol: Inhibition of N-terminal His6-tagged Zika virus NS2B (49 to 95 residues) - NS3 (1 to 170 residues) protease domain expressed in Escherichia coli BL21-Gold (DE3) cells preincubated for 10 mins followed by Bz-Nle-Lys-Lys-Arg-AMC substrate addition
readout.label: Ki

Sample N=C(N)NCCC[C@H](NC(=O)[C@H](Cc1ccc(CN)cc1)NC(=O)c1ccccc1)B(O)O ; Ki observed: 0.04 µM
